Assay: chemical genetic growth profiling, strain panel (AID 1159580);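 note: tested at 20 µM; growth read once vehicle control cultures reached saturation at 30 °C; 1 = growth at the plate median or of vehicle wells; lower values mean less growth of the strain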
Details: S. cerevisiae deletion strains, growth OD, locus YDR162C, strain NBP2, active compounds read low
About 2,000 (36%) of roughly 5,500 compounds were called active. Inconclusive results (about 18%) are left out. The list shows a part of the results.
Measured endpoint: normalized growth

# Molecule, Observed result
rows = [
    ("COC(=O)C1=CO[C@@H](O[C@@H]2O[C@H](CO)[C@@H](O)[C@H](O)[C@H]2O)[C@@H]2[C@@H](C)[C@@H](O)C[C@H]12", 1.01),
    ("CC(C)=CCOc1cc2oc(=O)ccc2cc1O", 0.876),
    ("COc1cc(OC)cc(OC)c1", 1.02),
    ("CC(=O)OC1CCC2C3CCc4cc(O)ccc4C3CCC12C (stereo not given)", 1),
    ("CC1(C)C[C@@H]2C(=O)CC[C@H]3O[C@]3(C)CC[C@H]21", 1.02),
]

---

Experiment: chemical genetic growth profiling, strain panel (AID 1159580)
Details: S. cerevisiae deletion strains, growth OD, locus YMR307W, strain GAS1, active compounds read low
The campaign covered roughly 5,500 compounds. About 2,000 (36%) were called active. Inconclusive results (about 18%) are left out. This is one part of the list.
We begin with a simple list: items and their reported normalized growth.

# Compound, normalized growth
rows = [
    ("COC1(C2=NCCN2)COc2ccccc2O1 (centres undefined)", "0.998 (inactive)"),
    ("NC(=S)c1ccc[n+]([C@@H]2O[C@@H](COP(=O)([O-])OP(=O)(O)OC[C@H]3O[C@@H](n4cnc5c(N)ncnc54)C(OP(=O)(O)O)[C@H]3O)C(O)C2O)c1 (some centres undefined)", "1 (inactive)"),
    ("COc1ccc(-c2ccc(N)[n+](CCCC(=O)O)n2)cc1", "1.01 (inactive)"),
    ("NCCS", "1.02 (inactive)"),
    ("CC(=O)[C@H]1CC[C@H]2[C@@H]3CC[C@H]4C[C@H](O)CC[C@]4(C)[C@H]3C(=O)C[C@]12C", "0.981 (inactive)"),
    ("C/C=C(\\C)C(=O)OC1[C@@H]2C=C3C4CC(=O)O[C@@H](c5ccoc5)[C@]4(C)CCC3[C@@](C)(C2=O)[C@@H](C(O)C(=O)OC)C1(C)C (some centres undefined)", "0.998 (inactive)"),
    ("C[C@]12C=CC(=O)C=C1CC[C@H]1[C@@H]3C[C@@H](O)[C@](O)(C(=O)CO)[C@@]3(C)C[C@H](O)[C@@]12F", "1.02 (inactive)"),
    ("Cc1ccc(C(=O)NNC(=O)c2ccncc2)c(C)c1", "1.01 (inactive)"),
    ("CCOC(=O)c1ncn2c1[C@@H]1CCCN1C(=O)c1cc(OC)ccc1-2", "0.981 (inactive)"),
]

---

Assay: chemical genetic growth profiling, strain panel (AID 1159580);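 note: tested at 20 µM; growth read once vehicle control cultures reached saturation at 30 °C; 1 = growth at the plate median or of vehicle wells; lower values mean less growth of the strain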
Settings: S. cerevisiae deletion strains, growth OD, locus YIR030C, strain dcg1, active compounds read low
Among all 5,500 compounds or so, about 2,000 (36%) were called active. About 18% were inconclusive and are not listed. This is one part of the list.

# Compound, normalized growth
rows = [
    ("O=[N+]([O-])/N=C1/NCCN1Cc1ccc(Cl)cc1", 0.988),
    ("CCOC(=O)C1=C(C)NC(C)=C(C(=O)OC)C1c1cccc([N+](=O)[O-])c1 (stereo not given)", 0.999),
    ("COc1cc2ccc(=O)oc2c2ccoc12", 0.993),
    ("CCC(=O)O[C@H]1CCC2C3CCc4cc(O)ccc4C3CC[C@@]21C (stereo not given in full)", 1),
    ("Cc1c(N(C)CS(=O)(=O)O)c(=O)n(-c2ccccc2)n1C", 0.982),
]

---

Assay: chemical genetic growth profiling, strain panel (AID 1159580);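 note: tested at 20 µM; growth read once vehicle control cultures reached saturation at 30 °C; 1 = growth at the plate median or of vehicle wells; lower values mean less growth of the strain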
Settings: S. cerevisiae deletion strains, growth OD, locus YDL101C, strain DUN1, active compounds read low
The whole screen tested about 5,500 compounds, of which about 2,000 (36%) were called active. Roughly 18% stayed inconclusive and do not appear here. Some of the results follow.
We begin with a simple list: items and their reported normalized growth.
Measured endpoint: normalized growth

# Compound, Measured endpoint, Observed result
data = [
    ("CC(=O)CC(C)=Nc1ccc(C(F)(F)F)cc1", "normalized growth", 0.994),
    ("Cc1ccc(S(=O)(=O)Oc2ccc(CC#N)cc2)cc1", "normalized growth", 1.02),
    ("CCS(=O)(=O)CCn1c([N+](=O)[O-])cnc1C", "normalized growth", 1.01),
    ("CCSC(SCC)[C@H](O)[C@@H](O)[C@H](O)CO", "normalized growth", 0.993),
    ("CC(=O)N[C@@H](CC(=O)O)C(=O)O", "normalized growth", 1.01),
    ("CCN(CC)CCNC(=O)COc1ccc(OC)cc1", "normalized growth", 0.993),
    ("Cc1ncc([N+](=O)[O-])n1CCO", "normalized growth", 0.977),
    ("NCCS", "normalized growth", 1.01),
    ("Cc1ccc(S(=O)(=O)Oc2cc(=O)n(C)c3ccccc23)cc1", "normalized growth", 0.967),
    ("N#Cc1c(N)sc2c1CCc1ccccc1-2", "normalized growth", 0.929),
    ("C/C=C(\\C)C(=O)OC1[C@@H]2C=C3C4CC(=O)O[C@@H](c5ccoc5)[C@]4(C)CCC3[C@@](C)(C2=O)[C@@H](C(O)C(=O)OC)C1(C)C (stereo not given in full)", "normalized growth", 1.01),
    ("CC1=CC(C)(C)NC(=S)N1", "normalized growth", 1),
    ("NC(=S)Nc1cc(Cl)ccc1Cl", "normalized growth", 0.975),
    ("S=c1nc(-c2ccccc2)[nH][nH]1", "normalized growth", 1.02),
    ("Cc1ccc(/C(C#N)=C2C=C/C(=N/O)C(Cl)=C\\2Cl)cc1", "normalized growth", 0.983),
    ("CC(=O)NN(C)c1ccc(C(F)(F)F)cc1[N+](=O)[O-]", "normalized growth", 1),
    ("N#CC(C#N)=NNc1ccc(-n2ccc(C(F)(F)F)n2)cc1", "normalized growth", 0.88),
    ("C(=NC(N=Cc1ccccc1)c1ccccc1)c1ccccc1 (stereo not given)", "normalized growth", 0.994),
    ("CC1CCc2c(sc3ncnc(Sc4ccccc4)c23)C1 (stereo not given)", "normalized growth", 0.978),
    ("N#CC(C#N)=CNc1cc(C(F)(F)F)ccc1N1CCCCC1", "normalized growth", 0.991),
    ("CC(/C=C/c1ccccc1)=N/OC(=O)c1ccccc1Cl", "normalized growth", 0.976),
    ("COc1ccc(/C(C#N)=C2C=C/C(=N/O)C(Cl)=C\\2)cc1", "normalized growth", 0.971),
    ("Nc1ccccc1C(=O)N/N=C\\c1cc(Cl)cc(Cl)c1O", "normalized growth", 0.97),
    ("COc1cccc(CC(=O)NN)c1", "normalized growth", 1.05),
    ("COc1ccc(Cc2nccc3cc(OC)c(OC)cc23)cc1OC", "normalized growth", 1.01),
    ("CSC(=Nc1ccc(C(C)C)cc1)NC#N", "normalized growth", 1.02),
    ("Nc1ccc(N2CCN(c3ccc(C(F)(F)F)cn3)CC2)nc1", "normalized growth", 0.987),
    ("N#C/C(=C\\c1ccc(O)cc1)C(=O)O", "normalized growth", 0.951),
    ("CC(O)CNc1ccc(C(F)(F)F)cc1[N+](=O)[O-] (stereo not given)", "normalized growth", 1.03),
    ("Cc1c(C(=O)NCCNc2ccc(C(F)(F)F)cc2[N+](=O)[O-])cnn1-c1ccc(F)cc1", "normalized growth", 0.988),
    ("O=c1nc(-c2ccccc2)nc(-c2ccccc2)[nH]1", "normalized growth", 1.03),
    ("N#C/C(=C\\c1ccc(C(F)(F)F)cc1)c1ccc(O)cc1", "normalized growth", 0.979),
    ("COc1cccc(C(=O)C(C#N)=C(SC)SC)c1", "normalized growth", 0.901),
    ("Cc1ccc(S(=O)(=O)/C(C#N)=N\\O)cc1", "normalized growth", 1.01),
    ("FC(F)(F)c1ccc(-n2cncn2)nc1", "normalized growth", 1),
]

---

Assay: chemical genetic growth profiling, strain panel (AID 1159580);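 note: tested at 20 µM; growth read once vehicle control cultures reached saturation at 30 °C; 1 = growth at the plate median or of vehicle wells; lower values mean less growth of the strain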
Details: S. cerevisiae deletion strains, growth OD, locus YFR010W, strain ubp6, active compounds read low
The campaign covered roughly 5,500 compounds. About 2,000 (36%) were called active. Inconclusive results (about 18%) are left out. This is one part of the list.

# Compound, normalized growth
data = [
    ("COC(=O)C1=CO[C@@H](O[C@@H]2O[C@H](CO)[C@@H](O)[C@H](O)[C@H]2O)[C@@H]2[C@@H](C)[C@@H](O)C[C@H]12", 1),
    ("OCCN1CCN(CCCN2c3ccccc3Sc3ccc(Cl)cc32)CC1", 0.976),
    ("Nc1ncnc2nc[nH]c12", 0.982),
    ("CC(=O)OC1CCC2C3CCc4cc(O)ccc4C3CCC12C (centres undefined)", 0.963),
    ("O=C1OC(=O)C2C3CCC(O3)C12 (centres undefined)", 0.967),
    ("COc1c2c(cc3occ(-c4ccc5c(c4)OCO5)c(=O)c13)OC(C)(C)C=C2", 0.989),
    ("CCC(=O)O[C@H]1CCC2C3CCc4cc(O)ccc4C3CC[C@@]21C (some centres undefined)", 0.956),
    ("O=c1c(-c2ccc3c(c2)OCO3)coc2cc(O)ccc12", 1),
    ("CC1(C)C=Cc2c(cc3occ(-c4ccc5c(c4)OCO5)c(=O)c3c2O)O1", 0.91),
    ("CC(=O)Oc1ccc2c(c1)CCC1C2CC[C@@]2(C)C1CC[C@@H]2OC(C)=O (some centres undefined)", 1),
    ("COc1c(O)cc(O)cc1O", 0.999),
    ("Fc1ccc(C(c2ccc(F)cc2)N2CCN(C/C=C/c3ccccc3)CC2)cc1", 0.297),
    ("CCCCC/C=C\\C/C=C\\C/C=C\\C/C=C\\CCCC(=O)O", 0.974),
    ("O=c1n(CCCN2CCN(c3cccc(Cl)c3)CC2)nc2ccccn12", 0.975),
    ("O=C1c2ccccc2-c2cccc3cccc1c23", 0.833),
    ("CC(C)=CCc1c(O)cc2occ(-c3ccc4c(c3)OCO4)c(=O)c2c1O", 0.92),
    ("COc1cc2c(cc1-c1coc3c4c(c(OC)cc3c1=O)OC(C)(C)C=C4)OCO2", 1.07),
    ("O=C(/C=C/C(=O)Oc1ccccc1C(=O)O)Oc1ccccc1C(=O)O", 0.991),
    ("COc1cc(O)c(C)c(O)c1", 1.02),
]
